tested target: UniProt:Q9UGN5
Sequence (Q9UGN5 whole entry): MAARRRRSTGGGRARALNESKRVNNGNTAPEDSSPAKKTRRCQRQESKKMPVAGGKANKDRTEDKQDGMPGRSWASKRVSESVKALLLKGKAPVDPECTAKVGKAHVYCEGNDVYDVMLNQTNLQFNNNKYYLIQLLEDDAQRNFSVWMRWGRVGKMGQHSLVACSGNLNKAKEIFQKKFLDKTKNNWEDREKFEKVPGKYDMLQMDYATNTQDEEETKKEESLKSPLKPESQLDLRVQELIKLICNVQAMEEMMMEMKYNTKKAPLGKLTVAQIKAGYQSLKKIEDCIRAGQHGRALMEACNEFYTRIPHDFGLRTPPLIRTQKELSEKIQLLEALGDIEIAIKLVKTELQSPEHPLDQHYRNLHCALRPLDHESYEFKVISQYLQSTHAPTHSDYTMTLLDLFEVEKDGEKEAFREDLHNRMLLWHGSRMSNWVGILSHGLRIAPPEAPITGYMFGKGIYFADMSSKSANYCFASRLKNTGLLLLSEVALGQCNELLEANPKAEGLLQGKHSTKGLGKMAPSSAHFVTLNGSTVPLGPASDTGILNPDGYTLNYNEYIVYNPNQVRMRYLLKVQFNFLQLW
assay procedure: Biochemical fluorescent polarization (FP) assay, displacement of PARPi-FL
Type: binding
assay endpoint: IC50
Remember to quote the unit after the number.

{"molecule": "[2H]C([2H])([2H])NC(=O)c1ccc(O[C@H]2CN(Cc3cnc4cc(CC)c(=O)[nH]c4c3)[C@@H]2C)cn1 [Example 39]", "IC50": "5.9 µM"}

Lookup: Given the entry [2H]C([2H])([2H])NC(=O)c1ccc(O[C@H]2CN(C([2H])([2H])c3cnc4cc(CC)c(=O)[nH]c4c3)[C@@H]2C)cn1 [Example 45] , report its measured IC50.
Found: 6.9 µM
